Data provenance: paper PMC9253516

testedOn: Sgo1_(1–155) (human)
testMethodNotes: ITC; Survivin or CPC (monomer concentration) injected into Sgo1 constructs, 20°C; 50 mM Hepes pH 8, 150 mM NaCl, 5% glycerol, 1 mM TCEP; standard 1:1 binding model
pKd: −log10 of the molar value.

{"columns": ["substance", "pKd"],
 "data": [
  ["CPC_(ISB10–280) (INCENP_(1–58), Survivin full length, Borealin_(10–280)) (from UniProt Q9NQS7 1-58; O15392 1-142; Q53HL2 10-280) (complex)", 7.15]
]}

====

testedOn: Sgo1_(1–415 4A) (human) (UniProt Q5FBB7)
testMethodNotes: ITC; 100 μM CPC injected into 10 μM Sgo1 1-415 or 1-415 4A, 20°C; 50 mM Hepes pH 8, 250 mM NaCl, 5% glycerol, 1 mM TCEP, 0.005% Tween; standard 1:1 binding model
pKd: −log10 of the molar value.
assayReadout: pKd

{"columns": ["substance", "testedOn", "assayReadout", "resultValue"],
 "data": [
  ["CPC_(ISB10–280) (INCENP_(1–58), Survivin full length, Borealin_(10–280)) (from UniProt Q9NQS7 1-58; O15392 1-142; Q53HL2 10-280) (complex)", "Sgo1_(1–415 4A) (human) (UniProt Q5FBB7)", "pKd", 6.95]
]}
